Values compiled from the supplement of paper PMC11732987.

Provide the reported log2 ratio of Biotin-Ahx-Ub-VS probe labelling of each item.
molecular target: USP54 (UniProt Q70EL1); test: log2 ratio of Biotin-Ahx-Ub-VS probe labelling (fragment/DMSO); higher = less target engagement (more negative = stronger competition), active = hit call of the paper (q ≤ 0.05, log2 ratio ≤ -1); conditions: compound concentration: 200 uM; treatment time: 3 h
Sequence (Q70EL1 whole entry, the tested form may be a part): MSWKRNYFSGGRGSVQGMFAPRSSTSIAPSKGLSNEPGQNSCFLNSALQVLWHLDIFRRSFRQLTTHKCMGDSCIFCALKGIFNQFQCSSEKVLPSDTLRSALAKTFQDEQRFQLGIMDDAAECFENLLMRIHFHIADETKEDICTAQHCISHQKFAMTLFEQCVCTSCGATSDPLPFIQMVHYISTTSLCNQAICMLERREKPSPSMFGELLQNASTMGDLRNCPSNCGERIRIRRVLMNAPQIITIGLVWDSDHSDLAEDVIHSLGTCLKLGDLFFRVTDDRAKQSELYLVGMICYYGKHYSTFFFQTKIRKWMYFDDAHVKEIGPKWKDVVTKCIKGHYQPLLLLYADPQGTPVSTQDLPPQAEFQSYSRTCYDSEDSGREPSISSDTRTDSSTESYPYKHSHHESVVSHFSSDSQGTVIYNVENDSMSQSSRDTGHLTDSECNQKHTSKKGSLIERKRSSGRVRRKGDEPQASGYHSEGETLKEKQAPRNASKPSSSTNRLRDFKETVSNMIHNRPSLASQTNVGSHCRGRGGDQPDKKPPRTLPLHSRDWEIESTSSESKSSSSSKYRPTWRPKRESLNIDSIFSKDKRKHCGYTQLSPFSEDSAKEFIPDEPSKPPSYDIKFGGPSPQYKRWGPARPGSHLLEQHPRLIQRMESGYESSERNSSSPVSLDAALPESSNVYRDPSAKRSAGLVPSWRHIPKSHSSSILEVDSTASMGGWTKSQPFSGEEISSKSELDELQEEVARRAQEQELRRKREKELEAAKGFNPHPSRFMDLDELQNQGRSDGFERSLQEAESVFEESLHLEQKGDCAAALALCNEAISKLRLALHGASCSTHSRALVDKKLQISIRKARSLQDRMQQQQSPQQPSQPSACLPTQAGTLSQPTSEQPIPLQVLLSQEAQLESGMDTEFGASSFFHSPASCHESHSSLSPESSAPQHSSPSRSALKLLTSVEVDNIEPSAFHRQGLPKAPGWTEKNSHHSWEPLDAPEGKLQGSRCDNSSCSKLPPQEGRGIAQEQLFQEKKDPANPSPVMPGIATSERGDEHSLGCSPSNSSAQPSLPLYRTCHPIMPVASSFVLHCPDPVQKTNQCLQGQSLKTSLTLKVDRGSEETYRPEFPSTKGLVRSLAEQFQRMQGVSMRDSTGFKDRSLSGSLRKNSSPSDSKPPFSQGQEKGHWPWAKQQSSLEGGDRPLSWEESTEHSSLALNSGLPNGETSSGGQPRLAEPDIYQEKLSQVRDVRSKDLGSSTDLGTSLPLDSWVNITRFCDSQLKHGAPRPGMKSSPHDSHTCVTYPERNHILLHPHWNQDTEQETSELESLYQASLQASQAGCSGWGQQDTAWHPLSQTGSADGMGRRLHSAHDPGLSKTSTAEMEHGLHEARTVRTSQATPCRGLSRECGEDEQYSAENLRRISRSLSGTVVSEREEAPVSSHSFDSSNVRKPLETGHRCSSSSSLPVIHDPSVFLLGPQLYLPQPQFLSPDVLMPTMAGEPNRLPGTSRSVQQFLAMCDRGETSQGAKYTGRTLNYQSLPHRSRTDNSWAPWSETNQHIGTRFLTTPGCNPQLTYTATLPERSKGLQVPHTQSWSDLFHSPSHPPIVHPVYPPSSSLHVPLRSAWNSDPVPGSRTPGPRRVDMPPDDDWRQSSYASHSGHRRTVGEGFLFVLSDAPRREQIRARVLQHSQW
One number for each entry.

COMPOUND: O=C(CCl)N1CCC[C@@H]1c1ccon1
TARGET_OR_TEST_SYSTEM: USP54 (UniProt Q70EL1)
RECORDED_MEASUREMENT: 0.591

COMPOUND: COc1ccc(-c2csc(NC(=O)CCl)n2)cc1
TARGET_OR_TEST_SYSTEM: USP54 (UniProt Q70EL1)
RECORDED_MEASUREMENT: 0.204

For each of the compounds below, state log2 ratio of Biotin-Ahx-Ub-VS probe labelling.
1. O=C(CCl)NC1CCN(C(=O)C2CCCCC2)CC1
2. Cc1ccc(N2CCC(NC(=O)CCl)C2=O)cc1 (stereo unspecified)
3. CCCn1nccc1NC(=O)CCl
4. O=C(CCl)N[C@H]1CCS(=O)(=O)c2ccccc21
5. O=C(CCl)Nc1ccc(F)cc1F
6. Cc1cccc2nc(CCNC(=O)CCl)cn12.Cl
7. O=C(CCl)N1CCC(OCc2ccccc2F)CC1
8. C#Cc1cccc(NC(=O)CCl)c1

Given back:
[0.282, 0.213, 0.705, -0.274, 0.615, 0.94, -0.235, -0.249]
